All figures here come from patent US20260234242A1.

- target: T1, his-tagged human CDH6 extracellular region protein (hCDH6 ECD-his) (human, UniProt P55285 19-615)
- T1 construct: also called Human CDH6-his; hCDH6-his; not shown: his tag
- T1 sequence: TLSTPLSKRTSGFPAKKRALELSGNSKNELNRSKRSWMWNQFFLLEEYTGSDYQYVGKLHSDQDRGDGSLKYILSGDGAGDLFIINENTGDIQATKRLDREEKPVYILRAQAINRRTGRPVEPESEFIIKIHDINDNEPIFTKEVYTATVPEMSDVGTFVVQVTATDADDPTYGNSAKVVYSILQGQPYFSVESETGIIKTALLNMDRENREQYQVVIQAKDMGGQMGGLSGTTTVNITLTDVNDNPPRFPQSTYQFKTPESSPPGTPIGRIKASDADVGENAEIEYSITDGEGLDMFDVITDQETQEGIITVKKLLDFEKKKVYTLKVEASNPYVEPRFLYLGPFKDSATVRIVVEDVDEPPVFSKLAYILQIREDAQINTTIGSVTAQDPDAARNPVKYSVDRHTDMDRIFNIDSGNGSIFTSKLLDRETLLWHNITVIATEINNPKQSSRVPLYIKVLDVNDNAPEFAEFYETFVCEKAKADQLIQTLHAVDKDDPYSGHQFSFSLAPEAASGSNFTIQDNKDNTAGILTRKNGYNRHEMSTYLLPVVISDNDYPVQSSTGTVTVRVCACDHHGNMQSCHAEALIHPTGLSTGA
- experiment-description: SPR Biacore 8K, antibody captured on Protein A
measured-quantity: koff
Include the unit right after the number.

// field: koff; key: CHI-CDH6-8 (antibody, human IgG1, kappa, V domains shown, also called chimeric antibody of murine CDH6-8) VH: EVQLQQSGPELVKPGDSVKMSCKASGYTFTDYYMAWIKQNHGKSLEWIGYIYPNNGGTDYNQKFRGKATLTVDKSSSAAYMELHSLTSEDSAVYYCAREIGTLYGDYYAMDYWGQGTSVTVSS VL: DIQMTQSPASLSASVGETVTITCRASENIDSYLAWYQQKQGKSPQLLVYTATLLADGVPSRFSGSGSGTQYSLKINSLQSEDVARYYCQHYYSTPPTFGSGTKLEIKR ; value = 0.00378 s⁻¹

// field: koff; key: CHI-CDH6-11 (antibody, human IgG1, kappa, V domains shown, also called chimeric antibody of murine CDH6-11) VH: QIQLQQSGPELVKPGASVRISCKASGYTFTDYYITWVKLRPGQGLEWIGWIYPGSVNIKYNEKFKGKATLTVDTSSSTAYMQLNSLTSEDSAVYFCARGGYSWFPYWGQGTLVTVSA VL: NIVMTQSPKSMSMSVGERVTLSCKASENVHTYVSWYQQKPEQSPKLLFYGASTRNTGVPDRFTGSGSATDFTLTISSVQAEDLADYYCGQSYSYPYTFGSGTKLEIKR ; value = 0.000201 s⁻¹

// field: koff; key: CHI-CDH6-2 (antibody, human IgG1, kappa, V domains shown, also called chimeric antibody of murine CDH6-2) VH: EVQLQQSGPELVKPGASVRISCKASGYTFTDYYMNWVKQSHGKSLEWIGDIDPNNANTTYNQKFKGKATLTVDKSSSTAYMELRSLTSEDSAVYSCASFGYDVEWFGYWGQGTLVTVSA VL: QIVLTQSPALMSASPGEKVTMTCSASSSVSYMYWYQQKPRSSPKPWIYLTSNLASGVPARFSGSGSGTSYSLTISSMEAEDAATYYCQQWSSNPFTFGSGTKLEIKR ; value = 0.00185 s⁻¹

// field: koff; key: CHI-CDH6-10 (antibody, human IgG1, kappa, V domains shown, also called chimeric antibody of murine CDH6-10) VH: QVQLQQPGAELVKPGTSVKMSCKASGYTFTSDWIAWVKQRPGQGLEWIGDIYPGSGRTHNNEKFNFKATLTVDTSSNTAYMQLSSLTSEDSAVYFCARPMLGRFDYWGQGTTLTVSS VL: DIVLTQSPASLAVSLGQRATISCRASESVSIHGTHLMHWYQQKPGQPPKLLIYAASNLESGVPARFSGSGSETDFTLNIHPVEEEDAATYFCQQSFEDPFTFGSGTKLEIKR ; value = 0.00364 s⁻¹

// field: koff; key: CHI-CDH6-1 (antibody, human IgG1, kappa, V domains shown, also called CHI-hCDH6-1; CH1-CDH6-1) VH: QVQLQQPGAELVRPGSSVKLSCKASGYTFTNYWMHWVKQRPIEGLEWIGDIDPSHSETHYTQKFKDKATLTVDKSSSTAYMQLSSLTSEDSAVYYCARGDLGRFDYWGQGTTLTVSS VL: DIVLTQSPASLAVSLGQRATISCRASESVSIHGTHLMHWYQQKSGQPPKLLIYAASNLESGVPARFSGSGSETDFTFNIHPVEEEDAATYFCQQSFEDPWTFGGGTKLEIKR ; value = 0.00585 s⁻¹
